target system: human ether-à-go-go-related gene (hERG) potassium channel (human);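 further: peak tail current of the secondary pulse compared with the same well before compound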
Sequence (Q12809 whole entry, looked up): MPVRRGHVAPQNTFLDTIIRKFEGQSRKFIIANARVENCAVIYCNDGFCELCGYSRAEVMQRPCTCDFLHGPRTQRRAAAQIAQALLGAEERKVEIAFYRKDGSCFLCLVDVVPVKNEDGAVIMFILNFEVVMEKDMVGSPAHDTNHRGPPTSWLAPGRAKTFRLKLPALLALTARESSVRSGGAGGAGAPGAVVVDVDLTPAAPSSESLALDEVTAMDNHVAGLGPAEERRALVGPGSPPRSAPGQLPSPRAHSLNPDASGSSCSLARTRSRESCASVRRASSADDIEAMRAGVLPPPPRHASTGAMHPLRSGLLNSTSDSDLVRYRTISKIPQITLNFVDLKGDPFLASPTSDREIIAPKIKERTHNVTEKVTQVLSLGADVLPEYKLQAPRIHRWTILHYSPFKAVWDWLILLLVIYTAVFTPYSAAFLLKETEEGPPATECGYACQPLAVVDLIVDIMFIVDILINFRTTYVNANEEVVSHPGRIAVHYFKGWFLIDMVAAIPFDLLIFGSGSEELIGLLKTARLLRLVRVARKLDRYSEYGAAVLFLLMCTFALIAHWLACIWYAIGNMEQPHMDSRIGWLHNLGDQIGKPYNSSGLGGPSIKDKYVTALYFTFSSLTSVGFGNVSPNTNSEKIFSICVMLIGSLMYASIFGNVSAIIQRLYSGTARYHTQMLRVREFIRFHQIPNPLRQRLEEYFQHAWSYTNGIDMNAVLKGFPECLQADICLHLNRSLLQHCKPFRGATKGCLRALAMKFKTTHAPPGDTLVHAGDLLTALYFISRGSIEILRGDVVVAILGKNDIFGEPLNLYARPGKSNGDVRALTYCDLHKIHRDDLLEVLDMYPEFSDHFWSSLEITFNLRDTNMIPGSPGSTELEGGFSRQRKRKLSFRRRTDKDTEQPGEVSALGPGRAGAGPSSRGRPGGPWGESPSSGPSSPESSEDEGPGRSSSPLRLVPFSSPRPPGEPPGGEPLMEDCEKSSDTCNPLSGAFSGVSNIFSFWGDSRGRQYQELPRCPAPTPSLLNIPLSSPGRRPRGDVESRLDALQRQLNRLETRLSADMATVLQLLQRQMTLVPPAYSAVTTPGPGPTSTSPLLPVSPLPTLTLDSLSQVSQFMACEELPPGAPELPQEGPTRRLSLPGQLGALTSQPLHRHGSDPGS
test protocol: primary screen, population patch clamp on CHO cells stably expressing hERG; higher = less effect of the substance
Among all 310,000 compounds or so, about 14,000 (4.5%) showed an effect of 50% or more. Effects have a minus sign here. The full list was thinned out, with strong results kept by preference.
property label: hERG current change (%, negative = inhibition) at 10uM (%)

{"compound": "Cc1ccc(CNC(=O)COC(=O)Cn2nc(C)c([N+](=O)[O-])c2C)cc1", "target system": "human ether-à-go-go-related gene (hERG) potassium channel (human)", "test value": -16.3}
{"compound": "Oc1ccc(Nc2nc(-c3ccc(O)cc3)cs2)cc1", "target system": "human ether-à-go-go-related gene (hERG) potassium channel (human)", "test value": 18.9}
{"compound": "COc1cccc(/C=N/NC(=O)Cn2nc(C)c([N+](=O)[O-])c2C)c1O", "target system": "human ether-à-go-go-related gene (hERG) potassium channel (human)", "test value": -13.1}
{"compound": "Cc1ccc(C(=O)NC(C)CCc2ccccc2)cc1[N+](=O)[O-] (stereo not shown)", "target system": "human ether-à-go-go-related gene (hERG) potassium channel (human)", "test value": -13.9}
{"compound": "O=C(NCCCc1ccccc1)c1ccc(-n2cncn2)c([N+](=O)[O-])c1", "target system": "human ether-à-go-go-related gene (hERG) potassium channel (human)", "test value": -60.5}
{"compound": "CCOc1ccc(Cl)cc1CNCCCSc1ncccn1", "target system": "human ether-à-go-go-related gene (hERG) potassium channel (human)", "test value": -37.3}
{"compound": "OCCCNc1cc(-c2ccnc(Nc3cccc(Cl)c3)n2)ccn1", "target system": "human ether-à-go-go-related gene (hERG) potassium channel (human)", "test value": -30.3}
{"compound": "CC1(C)CC2(CCO1)OC(=O)CC2C(=O)Nc1cccc2ccccc12 (stereo not shown)", "target system": "human ether-à-go-go-related gene (hERG) potassium channel (human)", "test value": 12}
{"compound": "COc1ccc(C(=O)OCc2c(C)noc2C)cc1", "target system": "human ether-à-go-go-related gene (hERG) potassium channel (human)", "test value": 12.9}
{"compound": "O=C(NCCN1CCOCC1)c1ccc(Cl)c([N+](=O)[O-])c1", "target system": "human ether-à-go-go-related gene (hERG) potassium channel (human)", "test value": 16.5}
{"compound": "CC(CCc1ccccc1)NC(=O)c1ccc(-n2cncn2)c([N+](=O)[O-])c1 (stereo not shown)", "target system": "human ether-à-go-go-related gene (hERG) potassium channel (human)", "test value": -70.9}
{"compound": "C=CCn1c(SCC(=O)Nc2ccc3c(c2)OCCO3)nnc1-c1ccccn1", "target system": "human ether-à-go-go-related gene (hERG) potassium channel (human)", "test value": -28.3}
{"compound": "C=CCSc1nc2ccccc2n2cnnc12", "target system": "human ether-à-go-go-related gene (hERG) potassium channel (human)", "test value": -18.5}
{"compound": "Cc1ccc(C)n1NC(=O)c1cccs1", "target system": "human ether-à-go-go-related gene (hERG) potassium channel (human)", "test value": 9.98}
{"compound": "NC(=O)CSc1oc(-c2cccs2)nc1S(=O)(=O)c1ccccc1", "target system": "human ether-à-go-go-related gene (hERG) potassium channel (human)", "test value": -15.5}
{"compound": "CCCn1c(SCC(=O)Nc2ccc3c(c2)OCCO3)nnc1-c1ccco1", "target system": "human ether-à-go-go-related gene (hERG) potassium channel (human)", "test value": -66.1}
{"compound": "CCn1c(SCC(=O)Nc2ccc3c(c2)OCCO3)nnc1-c1ccco1", "target system": "human ether-à-go-go-related gene (hERG) potassium channel (human)", "test value": -25.9}
{"compound": "Cc1cc(C(=O)NC(C)CCc2ccccc2)ccc1[N+](=O)[O-] (stereo not shown)", "target system": "human ether-à-go-go-related gene (hERG) potassium channel (human)", "test value": -29.5}
{"compound": "Cc1ccc(CNCCCSc2nc(C)cc(C)n2)cc1.Cl", "target system": "human ether-à-go-go-related gene (hERG) potassium channel (human)", "test value": -52.3}
{"compound": "O=c1ccnc(NCCc2ccccc2)[nH]1", "target system": "human ether-à-go-go-related gene (hERG) potassium channel (human)", "test value": 12.7}
{"compound": "Cc1cc(C)nc(SCCCNCc2ccccc2)n1.Cl", "target system": "human ether-à-go-go-related gene (hERG) potassium channel (human)", "test value": -3.19}
{"compound": "OCCCNc1nccc(-c2cc(Nc3cccc(Cl)c3)ncn2)n1", "target system": "human ether-à-go-go-related gene (hERG) potassium channel (human)", "test value": 9.69}
